Entry source: paper PMC8448731

# Test System: T1, SARS-CoV-2 spike RBD with C-terminal 3xFlag tag and N-terminal signal peptide of the spike (RBD-3xFlag) (SARS-CoV-2, Wuhan-Hu-1 type (wild type), UniProt P0DTC2)
# T1 construct: also called RBD-3×Flag; wild-type RBD; not shown: 3xFlag, C-terminal, kept
# Assay Notes: ELISA
# Assay Context: one partner purified
Value Kind: binding result

SR1 (VHH, not shown: 6xHis, C-terminal, kept) VHH: EVQLVESGGGLVQAGDSLRLSCAASGKTGRSVIMGWFRQAPDKEREFVATITRGDDTTNYADSVKGRFTISRDDARNTVYLQMNSLKPEDTAVYYCAAVYFVNDCIVDYWGQGTQVTVSS; binds
SR6c3 (VHH, not shown: 6xHis, C-terminal, kept) VHH: EVQLVESGGGLVQAGDSLRLSCAASGDCHVLWRMGWFRQAPGKEREFVAAISLDGQFTNYADSVRGRFSISADSAKNTVYLQMNSLKPEDTAVYYCAALPFLDYWGQGTQVTVSS; binds
